Assay target: HDAC3 (Homo sapiens (Human))
Sequence (O15379 whole entry): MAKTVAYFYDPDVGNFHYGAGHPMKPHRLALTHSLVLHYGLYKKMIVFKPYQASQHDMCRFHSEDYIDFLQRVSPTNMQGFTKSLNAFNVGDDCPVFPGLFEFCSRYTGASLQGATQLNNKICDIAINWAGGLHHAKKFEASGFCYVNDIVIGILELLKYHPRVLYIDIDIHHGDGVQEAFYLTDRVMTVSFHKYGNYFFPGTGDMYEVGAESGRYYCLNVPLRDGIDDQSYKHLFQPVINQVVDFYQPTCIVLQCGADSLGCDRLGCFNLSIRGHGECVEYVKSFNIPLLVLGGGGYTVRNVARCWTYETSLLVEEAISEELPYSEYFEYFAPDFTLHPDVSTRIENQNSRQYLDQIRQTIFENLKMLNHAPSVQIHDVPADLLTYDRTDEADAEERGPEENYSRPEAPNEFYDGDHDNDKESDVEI
Sequence (Q9Y618 395-489 partner): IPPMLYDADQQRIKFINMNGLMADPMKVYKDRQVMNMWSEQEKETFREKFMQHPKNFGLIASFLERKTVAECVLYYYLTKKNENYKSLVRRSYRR
Experimental endpoint: IC50

Task: Tell me its IC50 given CC1(C)c2cccc(C(N)=O)c2CN1c1cnc(C(F)(F)F)cn1 [Compound 50-1] as the entry.
Result: > 1 µM

====

Exercise: for every item that follows, state its recorded pIC50.
Assay target: full-length human HDAC11 (Homo sapiens (Human))
Assay details: HDAC11 deacetylase electrophoretic mobility shift assay (Nanosyn)
Format: biochemical
Test context: mobility shift assay, Table 4; read-out: HDAC11 IC50
pIC50: −log10 of the molar value.

Task: Tell me its pIC50 given O=C(NO)c1cccc2c1CCN(c1nc3ccccc3[nH]1)C2 [Compound 50-2] as the entry.
Result: < 6.00

Task: Tell me its pIC50 given O=C(NO)c1cccc2c1CCN(c1nc3ccccc3[nH]1)CC2 [Compound 50-3] as the entry.
Result: > 6.30

====

Experimental endpoint: IC50

Task: Identify measured IC50 obtained with HDAC2 (Homo sapiens (Human), UniProt Q92769) for CC1(C)c2cccc(C(N)=O)c2CN1c1cnc(C(F)(F)F)cn1 .
Sequence (Q92769 whole entry): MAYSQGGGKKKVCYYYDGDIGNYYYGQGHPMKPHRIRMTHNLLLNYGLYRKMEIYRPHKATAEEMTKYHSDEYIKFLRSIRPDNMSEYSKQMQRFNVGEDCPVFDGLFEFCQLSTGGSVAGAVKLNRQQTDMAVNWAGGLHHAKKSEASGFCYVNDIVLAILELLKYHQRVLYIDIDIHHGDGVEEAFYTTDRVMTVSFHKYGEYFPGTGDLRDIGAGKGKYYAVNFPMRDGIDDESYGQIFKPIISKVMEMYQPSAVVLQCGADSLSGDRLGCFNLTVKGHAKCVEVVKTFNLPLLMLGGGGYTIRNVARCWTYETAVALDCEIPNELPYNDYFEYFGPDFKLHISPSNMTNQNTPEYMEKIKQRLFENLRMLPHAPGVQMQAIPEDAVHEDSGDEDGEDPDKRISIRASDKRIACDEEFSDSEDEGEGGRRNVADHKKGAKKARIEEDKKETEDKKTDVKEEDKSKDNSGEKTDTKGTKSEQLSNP
Result: > 1 µM

====

Assay target: full-length human HDAC11 (Homo sapiens (Human), UniProt Q96DB2)
Sequence (Q96DB2 whole entry): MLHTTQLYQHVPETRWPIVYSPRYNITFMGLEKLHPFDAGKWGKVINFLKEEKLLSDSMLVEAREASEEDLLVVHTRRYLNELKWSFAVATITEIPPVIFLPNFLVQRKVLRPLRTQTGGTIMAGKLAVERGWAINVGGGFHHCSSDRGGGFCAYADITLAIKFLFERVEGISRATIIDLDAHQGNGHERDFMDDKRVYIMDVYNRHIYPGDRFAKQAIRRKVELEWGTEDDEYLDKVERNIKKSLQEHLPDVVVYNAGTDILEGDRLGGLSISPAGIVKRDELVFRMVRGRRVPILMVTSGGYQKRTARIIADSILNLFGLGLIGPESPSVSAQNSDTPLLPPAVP
Assay details: Probe binding HDAC11 time resolved fluorescence (TRF) assay
Test context: Table 2, read-out: HDAC11 IC50 Range
pIC50: −log10 of the molar value. Where a name gives a salt, the structure may show the parent alone.
Exercise: for every item that follows, state its recorded pIC50.

Task: Tell me its pIC50 given CC1(C)c2cccc(C(=O)NO)c2CN1c1ccc(C(F)(F)F)cn1 as the entry.
Result: > 6.30

Task: Tell me its pIC50 given O=C(NO)c1cccc2cc(-c3ccc(C(F)(F)F)cc3)[nH]c12 as the entry.
Result: 6.00 to 6.30

Task: Tell me its pIC50 given O=C(NO)c1cccc2c1CN(C(=O)c1ccccc1)C2 as the entry.
Result: < 6.00

Task: Tell me its pIC50 given CC1(C)c2cccc(C(=O)NO)c2CN1C(=O)Nc1nc2ccccc2o1 as the entry.
Result: < 6.00

Task: Tell me its pIC50 given CC1(C)c2cccc(C(=O)NO)c2CN1c1nc2nc(C(F)(F)F)ccc2o1 as the entry.
Result: > 6.30

Task: Tell me its pIC50 given COc1ccc(CN2Cc3c(C(=O)NO)cccc3C2(C)C)cc1 [Compound 32-1, hydrochloride] as the entry.
Result: < 6.00

Task: Tell me its pIC50 given O=C(NO)c1cccc2c1CN(c1nc3ncccc3s1)C2 as the entry.
Result: < 6.00

Task: Tell me its pIC50 given CC1(C)c2cccc(C(=O)NO)c2CN1c1nc2ccc(C(F)(F)F)cc2[nH]1 as the entry.
Result: > 6.30

Task: Tell me its pIC50 given O=C(NO)c1cccc2c1CN(c1nc3cc(C(F)(F)F)c(-c4ccccc4)cc3[nH]1)C2 as the entry.
Result: > 6.30

Task: Tell me its pIC50 given O=C(NO)c1cccc2c1CN(c1nc3cnccc3o1)C2 [Compound 6-1, hydrochloride] as the entry.
Result: 6.00 to 6.30

Task: Tell me its pIC50 given CC1(C)c2cccc(C(=O)NO)c2N[C@@H]1c1cnc(C(F)(F)F)cn1 as the entry.
Result: < 6.00

Task: Tell me its pIC50 given CC1(C)c2cccc(C(=O)NO)c2CN1C(=O)Nc1cc2c(cn1)CCCC2 as the entry.
Result: 6.00 to 6.30

Task: Tell me its pIC50 given O=C(NO)c1cccc2c1CC(c1ccc(C(F)(F)F)cc1)N2 (stereo not shown) as the entry.
Result: < 6.00

Task: Tell me its pIC50 given O=C(NO)c1cccc2c1CN(c1nc3ccccc3o1)C2 as the entry.
Result: > 6.30

Task: Tell me its pIC50 given CCC(C(=O)N1Cc2cccc(C(=O)NO)c2C1)c1ccc(OC)cc1 (stereo not shown) as the entry.
Result: < 6.00

Task: Tell me its pIC50 given CC1(C)c2cccc(C(=O)NO)c2N[C@H]1c1cnc(C(F)(F)F)cn1 as the entry.
Result: > 6.30

Task: Tell me its pIC50 given O=C(NO)c1cccc2c1CN(c1nc3cccc(-c4ccccc4)c3[nH]1)C2 as the entry.
Result: < 6.00

Task: Tell me its pIC50 given CC1(C)c2cccc(C(=O)NO)c2CN1C(=O)Nc1cccc(C(F)(F)F)n1 as the entry.
Result: < 6.00

Task: Tell me its pIC50 given O=C(NO)c1cccc2c1CN(c1nc3cccnc3[nH]1)C2 as the entry.
Result: < 6.00

Task: Tell me its pIC50 given CC1(C)c2cccc(C(=O)NO)c2CN1c1ccc2ccc(C(F)(F)F)cc2n1 as the entry.
Result: 6.00 to 6.30

Task: Tell me its pIC50 given O=C(NO)c1cccc2c1CN(c1ccc3c(c1)OCCN3)C2 [Compound 9-1, hydrochloride] as the entry.
Result: 6.00 to 6.30

Task: Tell me its pIC50 given CC1(C)c2cccc(C(=O)NO)c2CN1c1ccc2cc(C(F)(F)F)ccc2n1 as the entry.
Result: > 6.30

Task: Tell me its pIC50 given O=C(NO)c1cccc2c1CN(c1nc3ncccc3o1)C2 [Compound 5-1, hydrochloride] as the entry.
Result: > 6.30

Task: Tell me its pIC50 given CC1(C)c2cccc(C(=O)NO)c2CN1c1nc(C(F)(F)F)cs1 as the entry.
Result: < 6.00

Task: Tell me its pIC50 given O=C(NO)c1cccc2c1CN(c1nc3cc(C(F)(F)F)ccc3s1)C2 as the entry.
Result: > 6.30

Task: Tell me its pIC50 given Cl.O=C(NO)c1cccc2c1CN(c1nc3c([nH]1)CCCC3)C2 [Compound 1-4, hydrochloride] as the entry.
Result: < 6.00

Task: Tell me its pIC50 given O=C(NO)c1cccc2c1CN(c1nc3c([nH]1)C[C@H](C(F)(F)F)CC3)C2 (single isomer, unassigned) [Compound 2-1, hydrochloride] as the entry.
Result: > 6.30

Task: Tell me its pIC50 given CC1(C)c2cccc(C(=O)NO)c2CN1c1ccc(C(F)(F)F)nc1 as the entry.
Result: > 6.30

Task: Tell me its pIC50 given O=C(NO)c1cccc2c1CN(c1nc3c(o1)CCC(C(F)(F)F)C3)C2 (stereo not shown) as the entry.
Result: > 6.30

Task: Tell me its pIC50 given CC1(C)c2cccc(C(=O)NO)c2CN1c1nc2ccc(C(F)(F)F)cc2o1 as the entry.
Result: > 6.30

Task: Tell me its pIC50 given O=C(NO)c1cccc2cc(-c3cnc(C(F)(F)F)cn3)[nH]c12 as the entry.
Result: > 6.30

Task: Tell me its pIC50 given Cc1nc(N2Cc3cccc(C(=O)NO)c3C2)[nH]c1C.Cl [Compound 1-2, hydrochloride] as the entry.
Result: < 6.00

Task: Tell me its pIC50 given CC1(C)c2cccc(C(=O)NO)c2N[C@@H]1c1ccc(C(F)(F)F)cn1 as the entry.
Result: > 6.30

Task: Tell me its pIC50 given CC1(C)c2cccc(C(=O)NO)c2CN1c1ccc2nc(C(F)(F)F)ccc2n1 as the entry.
Result: > 6.30

====

Assay target: HDAC6 (Homo sapiens (Human))
Sequence (Q9UBN7 whole entry, species assumed): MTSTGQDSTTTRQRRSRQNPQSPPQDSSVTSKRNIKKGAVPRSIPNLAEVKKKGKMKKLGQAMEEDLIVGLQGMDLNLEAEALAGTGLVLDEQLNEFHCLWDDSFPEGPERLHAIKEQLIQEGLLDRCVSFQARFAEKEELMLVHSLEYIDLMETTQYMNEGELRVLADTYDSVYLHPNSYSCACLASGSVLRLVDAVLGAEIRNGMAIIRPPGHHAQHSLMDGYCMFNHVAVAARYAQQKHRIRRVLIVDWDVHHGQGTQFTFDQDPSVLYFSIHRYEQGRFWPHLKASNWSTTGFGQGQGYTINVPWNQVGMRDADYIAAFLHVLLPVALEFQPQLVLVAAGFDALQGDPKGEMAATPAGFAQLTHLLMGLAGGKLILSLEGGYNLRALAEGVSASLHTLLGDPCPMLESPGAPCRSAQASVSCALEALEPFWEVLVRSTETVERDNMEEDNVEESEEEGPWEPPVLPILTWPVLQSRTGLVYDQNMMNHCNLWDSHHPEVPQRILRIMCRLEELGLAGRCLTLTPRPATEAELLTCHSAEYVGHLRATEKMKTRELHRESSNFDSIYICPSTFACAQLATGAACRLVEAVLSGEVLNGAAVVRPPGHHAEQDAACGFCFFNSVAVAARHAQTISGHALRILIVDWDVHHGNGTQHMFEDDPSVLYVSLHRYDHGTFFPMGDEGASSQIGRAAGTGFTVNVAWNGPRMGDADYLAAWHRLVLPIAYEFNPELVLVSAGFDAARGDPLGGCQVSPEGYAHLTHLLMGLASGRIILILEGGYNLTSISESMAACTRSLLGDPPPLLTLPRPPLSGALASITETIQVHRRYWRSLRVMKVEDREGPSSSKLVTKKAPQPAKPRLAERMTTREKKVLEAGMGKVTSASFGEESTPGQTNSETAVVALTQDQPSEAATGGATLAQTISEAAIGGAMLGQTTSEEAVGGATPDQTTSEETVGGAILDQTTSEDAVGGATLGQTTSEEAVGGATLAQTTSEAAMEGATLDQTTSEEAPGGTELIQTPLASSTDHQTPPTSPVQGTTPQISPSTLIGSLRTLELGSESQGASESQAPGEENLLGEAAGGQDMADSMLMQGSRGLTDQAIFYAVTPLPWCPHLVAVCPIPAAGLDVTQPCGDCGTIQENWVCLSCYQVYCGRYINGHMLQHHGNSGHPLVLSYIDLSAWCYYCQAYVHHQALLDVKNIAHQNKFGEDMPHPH
Assay details: HDAC6 electrophoretic mobility shift assay
Format: biochemical
Test context: mobility shift assay, Table 4; read-out: HDAC6 IC50
pIC50: −log10 of the molar value.
Experimental endpoint: pIC50

Task: Identify measured pIC50 obtained with HDAC6 (Homo sapiens (Human)) for O=C(NO)c1cccc2c1CCN(c1nc3ccccc3[nH]1)CC2 .
Result: < 6.00

Task: Identify measured pIC50 obtained with HDAC6 (Homo sapiens (Human)) for O=C(NO)c1cccc2c1CN(c1nc3ccccc3[nH]1)C2 .
Result: < 6.00

Task: Identify measured pIC50 obtained with HDAC6 (Homo sapiens (Human)) for O=C(NO)c1cccc2c1CCN(c1nc3ccccc3[nH]1)C2 .
Result: < 6.00

====

Assay target: UniProtKB Q9UBN7
Assay details: HDAC6 electrophoretic mobility shift assay
Format: biochemical
Test context: mobility shift assay, Table 3, mean of at least two runs; read-out: HDAC 6 IC50
pIC50: −log10 of the molar value.
Experimental endpoint: pIC50

Task: Identify measured pIC50 obtained with UniProtKB Q9UBN7 for O=C(NO)c1cccc2c1CN(c1nc3ccccc3[nH]1)CC2 .
Result: > 6.30

Task: Identify measured pIC50 obtained with UniProtKB Q9UBN7 for O=C(NO)c1ccc2c(c1)CN(c1nc3ccccc3[nH]1)CC2 .
Result: > 6.30

Task: Identify measured pIC50 obtained with UniProtKB Q9UBN7 for O=C(NO)c1ccc2c(c1)CCN(c1nc3ccccc3[nH]1)C2 .
Result: > 6.30

Task: Identify measured pIC50 obtained with UniProtKB Q9UBN7 for O=C(NO)c1cccc2c1CCN(c1nc3ccccc3[nH]1)C2 .
Result: < 5.70

====

Assay target: full-length human HDAC11 (Homo sapiens (Human), UniProt Q96DB2)
Assay details: Probe binding HDAC11 time resolved fluorescence (TRF) assay
Test context: Table 2, read-out: HDAC11 IC50 Range
pIC50: −log10 of the molar value. Where a name gives a salt, the structure may show the parent alone.
Exercise: for every item that follows, state its recorded pIC50.

Task: Tell me its pIC50 given O=C(NO)c1cccc2c1CN(C1=NC(O)(C(F)(F)F)C(c3ccccc3)=N1)C2 (stereo not drawn) as the entry.
Result: < 6.00

Task: Tell me its pIC50 given CC1(C)c2cccc(C(=O)NO)c2CN1c1nc2c(o1)CCC(C(F)(F)F)C2 (stereo not drawn) as the entry.
Result: > 6.30

Task: Tell me its pIC50 given O=C(NO)c1cccc2c1CN(c1nc3ccccc3o1)C2=O as the entry.
Result: < 6.00

Task: Tell me its pIC50 given CC(=O)N1CCc2nc(N3Cc4cccc(C(=O)NO)c4C3)[nH]c2C1 [Compound 14-1, hydrochloride] as the entry.
Result: < 6.00

Task: Tell me its pIC50 given CC1(C)c2ccnc(C(=O)NO)c2CN1c1ccc(C(F)(F)F)cn1 as the entry.
Result: 6.00 to 6.30

Task: Tell me its pIC50 given O=C(NO)c1cccc2c1N[C@H](c1ccc(C(F)(F)F)cc1)C2 as the entry.
Result: < 6.00

Task: Tell me its pIC50 given O=C(NO)c1cccc2c1CN(c1nc3cc(C(F)(F)F)cc(-c4ccccc4)c3[nH]1)C2 as the entry.
Result: 6.00 to 6.30

Task: Tell me its pIC50 given O=C(NO)c1cccc2c1CN(c1cccc(C(F)(F)F)n1)C2 as the entry.
Result: < 6.00

Task: Tell me its pIC50 given CC1(C)c2cccc(C(=O)NO)c2CN1c1ccc2ccccc2n1 as the entry.
Result: > 6.30
